Test: Equilibrium solubility in aqueous buffers
Format: physicochemical
Conditions: aqueous potassium biphthalate buffer, thermodynamic from solid; aqueous buffer pH 5.0, shaken overnight at room temperature, LC-MS/MS
Description: The equilibrium solubility of crystalline compound (1) and crystalline compound (2) was measured in various aqueous buffers. The pH 4.0 and pH 5.0 buffers were prepared by combining 50 mL of 0.2 M potassium biphthalate with 150 mL of H2O, and then adjusting to pH 4.0 or pH 5.0 with 10 N HCl. […] The samples were analyzed by LCMS using a Waters Acuity® UPLC BEH Phenyl 30×2.1 mm, 1.7 μm liquid chromatography column and a PE Sciex® API 4000 mass spectrometer equipped with a Turbo Ionspray.
reportedEndpoint: solubility (mM)
Numbers only here, please. The scale is mM.

Q: I am curious: what solubility value has been reported for `Cl.O=C(Nc1ccc(CN2CCOCC2)cc1)c1ccc(Cl)cc1` ?
Ans: 10.2
